Below: a set of entries, each annotated with reported inhibition at 0.1 µM.
Target: human NaV1.8 ion channel (Homo sapiens (Human), UniProt Q9Y5Y9)
Sequence (Q9Y5Y9 whole entry): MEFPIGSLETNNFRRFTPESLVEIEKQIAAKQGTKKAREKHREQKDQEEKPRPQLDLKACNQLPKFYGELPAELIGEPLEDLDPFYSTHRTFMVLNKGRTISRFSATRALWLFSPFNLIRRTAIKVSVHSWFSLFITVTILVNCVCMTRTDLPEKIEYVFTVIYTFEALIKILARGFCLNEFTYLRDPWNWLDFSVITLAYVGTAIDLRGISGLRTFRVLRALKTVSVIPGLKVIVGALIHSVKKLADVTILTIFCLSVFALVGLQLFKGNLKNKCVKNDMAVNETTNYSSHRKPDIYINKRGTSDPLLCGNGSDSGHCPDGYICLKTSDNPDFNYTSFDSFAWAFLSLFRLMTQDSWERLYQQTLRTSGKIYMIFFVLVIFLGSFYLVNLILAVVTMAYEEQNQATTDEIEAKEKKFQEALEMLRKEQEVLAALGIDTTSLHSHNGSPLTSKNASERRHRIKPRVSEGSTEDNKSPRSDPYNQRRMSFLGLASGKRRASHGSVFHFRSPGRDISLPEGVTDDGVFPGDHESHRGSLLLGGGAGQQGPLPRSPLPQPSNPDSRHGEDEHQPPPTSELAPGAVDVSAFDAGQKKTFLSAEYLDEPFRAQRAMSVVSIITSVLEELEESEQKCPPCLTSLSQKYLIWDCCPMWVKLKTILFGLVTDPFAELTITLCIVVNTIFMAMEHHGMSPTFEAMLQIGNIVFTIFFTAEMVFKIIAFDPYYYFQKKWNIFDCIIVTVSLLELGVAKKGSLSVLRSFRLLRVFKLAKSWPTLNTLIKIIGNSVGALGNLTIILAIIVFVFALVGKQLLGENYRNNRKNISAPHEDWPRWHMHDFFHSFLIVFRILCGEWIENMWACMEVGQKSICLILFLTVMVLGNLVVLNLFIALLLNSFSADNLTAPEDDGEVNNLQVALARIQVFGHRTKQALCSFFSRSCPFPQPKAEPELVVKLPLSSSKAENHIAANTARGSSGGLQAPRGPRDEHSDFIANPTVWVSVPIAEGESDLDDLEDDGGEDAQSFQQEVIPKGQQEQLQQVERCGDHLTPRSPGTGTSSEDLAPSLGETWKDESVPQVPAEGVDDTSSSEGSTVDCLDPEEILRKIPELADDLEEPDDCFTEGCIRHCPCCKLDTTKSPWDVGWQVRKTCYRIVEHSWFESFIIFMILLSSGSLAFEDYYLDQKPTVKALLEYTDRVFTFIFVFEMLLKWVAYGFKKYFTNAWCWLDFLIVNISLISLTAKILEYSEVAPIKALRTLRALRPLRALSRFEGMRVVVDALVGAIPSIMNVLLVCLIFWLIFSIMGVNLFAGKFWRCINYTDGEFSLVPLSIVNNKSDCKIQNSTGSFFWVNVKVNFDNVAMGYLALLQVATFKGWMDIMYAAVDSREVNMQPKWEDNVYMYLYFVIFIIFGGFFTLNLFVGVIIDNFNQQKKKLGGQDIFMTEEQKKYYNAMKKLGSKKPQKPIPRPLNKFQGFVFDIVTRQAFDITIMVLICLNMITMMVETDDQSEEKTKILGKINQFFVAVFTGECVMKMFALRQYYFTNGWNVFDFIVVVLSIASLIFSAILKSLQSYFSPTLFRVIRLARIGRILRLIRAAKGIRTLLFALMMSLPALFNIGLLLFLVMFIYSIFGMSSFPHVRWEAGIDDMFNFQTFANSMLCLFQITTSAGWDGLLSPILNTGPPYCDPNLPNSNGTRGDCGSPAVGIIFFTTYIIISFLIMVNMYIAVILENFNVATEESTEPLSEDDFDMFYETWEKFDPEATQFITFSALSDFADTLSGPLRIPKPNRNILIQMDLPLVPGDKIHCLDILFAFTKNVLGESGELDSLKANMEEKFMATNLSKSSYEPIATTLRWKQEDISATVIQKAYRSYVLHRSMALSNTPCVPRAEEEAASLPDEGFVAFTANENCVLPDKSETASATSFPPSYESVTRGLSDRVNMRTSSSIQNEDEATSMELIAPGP
Assay: Compound inhibition activity on human NaV1.8 ion channel in HEK293 cells (whole-cell patch clamp)
Assay type: cell-based
Details: 100 nm concentration; HEK293 cells, resting protocol; read-out: Inhibition ratio of compounds against Nav1.8 (Activity of inhibition)

# compound, inhibition at 0.1 µM
records = [
    ("Cc1cc(F)ccc1Oc1cc(C2CC2)c(C(F)(F)F)cc1C(=O)Nc1ccc(F)c(OCC(O)CNC23CC(C2)C3)c1 (stereo not shown) [Example 93]", "50 to 80%"),
    ("Cc1cc(F)ccc1Oc1cc(C2CC2)c(C(F)(F)F)cc1C(=O)Nc1ccc(F)c(OCC(O)CNC(C)(C)C)c1 (stereo not shown) [Example 77]", "> 80%"),
    ("Cc1cc(F)ccc1Oc1cc(C2CC2)c(C(F)(F)F)cc1C(=O)Nc1cnnc(OCC(O)CO)c1 (stereo not shown) [Example 102]", "50 to 80%"),
    ("Cc1cc(F)ccc1Oc1cc(C2CC2)c(C(F)(F)F)cc1C(=O)Nc1ccc(F)c(OCC(O)CNC(C)C(F)(F)F)c1 (stereo not shown) [Example 91]", "20 to 50%"),
    ("Cc1cc(F)ccc1Oc1cc(C(F)(F)F)c(Cl)cc1C(=O)Nc1ccc(F)c(OC[C@H](O)CNC(=O)CO)c1 [Example 117]", "> 80%"),
    ("Cc1cc(F)ccc1Oc1cc(C2CC2)c(C(F)(F)F)cc1C(=O)Nc1ccc(F)c(OCC(=O)NC2(C(F)(F)F)CC2)c1 [Example 89]", "50 to 80%"),
    ("Cc1cc(F)ccc1Oc1cc(C2CC2)c(C(F)(F)F)cc1C(=O)Nc1ccc(F)c(C(N)CCNC(C)(C)C)c1 (stereo not shown) [Example 66]", "> 80%"),
]
